Listed here: items and their measured IC50.
- System: PDH-E1alpha (pSer300) in HEK293T cells
- EXPERIMENTAL_DETAILS: Cellular immunofluorescence assay, PDH-E1alpha (pSer300) in HEK293T cells
- Type: cell-based, human
- CONDITIONS: Homo sapiens, HEK-293T, 5 hours incubation, anti-PDH-E1alpha (pSer300) immunofluorescence, read-out: IC50 (cell data)

Solved entries:
COMPOUND	TARGET_OF_ASSAY	IC50
C[C@@H]1CN(C(=O)[C@@](C)(O)C(F)(F)F)Cc2cnn(-c3ccccc3F)c21	PDH-E1alpha (pSer300) in HEK293T cells	< 0.3 µM
C[C@@H]1CN(C(=O)[C@@](C)(O)C(F)(F)F)Cc2cn[nH]c21	PDH-E1alpha (pSer300) in HEK293T cells	3 to 50 µM
C[C@@](O)(C(=O)N1CCc2c(ncn2-c2ccc(F)cc2)C1)C(F)(F)F	PDH-E1alpha (pSer300) in HEK293T cells	3 to 50 µM
CC1CN(C(=O)[C@@](C)(O)C(F)(F)F)Cc2cnn(-c3ccc(F)cc3)c21 (stereo partly drawn)	PDH-E1alpha (pSer300) in HEK293T cells	< 0.3 µM
C[C@@H]1CN(C(=O)[C@@](C)(O)C(F)(F)F)Cc2cnn(-c3ccccc3)c21	PDH-E1alpha (pSer300) in HEK293T cells	< 0.3 µM
C[C@@](O)(C(=O)N1CCn2c(cnc2-c2ccccc2)C1)C(F)(F)F	PDH-E1alpha (pSer300) in HEK293T cells	3 to 50 µM
C[C@@](O)(C(=O)N1CCc2c(cnn2-c2ccc(Cl)cc2)C1)C(F)(F)F	PDH-E1alpha (pSer300) in HEK293T cells	3 to 50 µM
C[C@@H]1CN(C(=O)[C@@](C)(O)C(F)(F)F)Cc2cnn(-c3ccc(F)cc3)c21	PDH-E1alpha (pSer300) in HEK293T cells	< 0.3 µM
C[C@@](O)(C(=O)N1CCn2c(-c3ccccc3)cnc2C1)C(F)(F)F	PDH-E1alpha (pSer300) in HEK293T cells	3 to 50 µM
C[C@@H]1CN(C(=O)[C@@](C)(O)C(F)(F)F)Cc2cnn(-c3ccc(F)cc3F)c21	PDH-E1alpha (pSer300) in HEK293T cells	< 0.3 µM

INPUT: Give reported IC50 value for C[C@@H]1CN(C(=O)[C@@](C)(O)C(F)(F)F)Cc2cnn(C(C)(C)C)c21
OUTPUT: < 0.3 µM

INPUT: Give reported IC50 value for C[C@@H]1CN(C(=O)[C@@](C)(O)C(F)(F)F)Cc2cnn(C3CCC(O)CC3)c21 (stereo partly drawn)
OUTPUT: < 0.3 µM

###

- Tested on: PDH-E1alpha (pSer300) in HEK293T cells
- EXPERIMENTAL_DETAILS: Cellular immunofluorescence assay, PDH-E1alpha (pSer300) in HEK293T cells
- Format: cell-based, human
- CONDITIONS: Homo sapiens, HEK-293T, 5 hours incubation, anti-PDH-E1alpha (pSer300) immunofluorescence, read-out: IC50 (cell data)
pIC50: −log10 of the molar value.
MEASUREMENT_NAME: pIC50

MOLECULE	MEASUREMENT_NAME	RESULT_VALUE
C[C@@](O)(C(=O)N1CCc2c(cnn2-c2ccc(F)cc2F)C1)C(F)(F)F	pIC50	5.52 to 6.52

INPUT: Give reported pIC50 value for C[C@H]1CN(C(=O)[C@@](C)(O)C(F)(F)F)Cc2cnn(-c3ccc(F)cc3)c21
OUTPUT: 5.52 to 6.52

INPUT: Give reported pIC50 value for CC1CN(C(=O)[C@@](C)(O)C(F)(F)F)Cc2cnn(-c3ccc(Cl)cc3)c21 (stereo partly drawn)
OUTPUT: > 6.52

These data points were gathered from patent US10526325B2.
